Data origin, for the record: ChEMBL document CHEMBL4177666

- Tested on: Escherichia coli
- Procedure Summary: Efflux index, ratio of MIC for wild type Escherichia coli MG1655 to MIC for Escherichia coli MG1655 expressing AcrAB-TolC efflux pump deletion mutant
- Format: functional
Recorded Metric: Ratio
API doc: respond with a numeric literal and nothing else, no unit.

Example cases with answers are listed next.
CC(=O)NC[C@H]1CN(c2ccc(N3CCOCC3)c(F)c2)C(=O)O1 ... 12
O=C1CCc2cc(-c3ccc(N4C[C@H](CO)OC4=O)cc3F)cc(O)c21 ... 8
CC(=O)NC[C@H]1CN(c2ccc(-c3ccc(CN)c(O)c3)c(F)c2)C(=O)O1 ... 16

Let's switch to this compound now.
stdin: Which value of Ratio has been reported for CC(=O)NC[C@H]1CN(c2ccc(-c3ccc(CN)cc3)c(F)c2)C(=O)O1 in the records?
stdout: 8
